GI50 values by entry
# Test system: HCT-116
# protocol: NCI tumour cell line growth inhibition, 48 h
The source made the active and inactive calls. Rule as the data show it: active = GI50 up to about 1.1 µM and inactive = higher.

>>> measurement("COCC1OC(OC2OCC3OC4(OCC(O)(C(C)OC)C5OCOC54)OC3C2OC)C(OC)C(O)C1OC1OC(C)C(OC)C(OC2OC(C)C3OC4(CC(O)C(OC5CC(OC6CC(C)([N+](=O)[O-])C(OC)C(C)O6)C(OC(=O)c6c(C)c(Cl)c(O)c(Cl)c6OC)C(C)O5)C(C)O4)OC3(C)C2O)C1O (stereo not given)")
"> 100 µM (inactive)"
>>> measurement("CCOP(=O)(OCC)/C(C#N)=C/c1cccn1N(C)C")
"3.37 µM (inactive)"
>>> measurement("Nc1ccc(C(c2ccccc2)(c2ccccc2)c2ccccc2)cc1")
"62.1 µM (inactive)"
>>> measurement("COCOC1/C=C/CCCCC(=O)C(C)C#CC1 (stereo not given)")
"1.86 µM (inactive)"
>>> measurement("CC(=O)OCCOCNC(=S)N/N=C/c1ccc([N+](=O)[O-])o1")
"40 µM (inactive)"
>>> measurement("[N-]=[N+]=NI1OC(=O)c2ccccc21")
"> 100 µM (inactive)"
>>> measurement("Nc1ncnc2c1ncn2CCCCC(=O)O")
"> 100 µM (inactive)"
>>> measurement("CC1(C)OCC2OC3([C@H]4OC(C)(C)O[C@@H]4CO)OC(C)(C)OC3C2O1 (stereo not given in full)")
"> 100 µM (inactive)"

// query Any idea what its GI50 is? The compound is O=[N+]([O-])c1ccc(Oc2c(Cl)cc(S(=O)(=O)N/C(=N\O)Nc3ccc(Cl)cc3)cc2Cl)cc1
// result 10.5 µM (inactive)

// query Recorded GI50 of CCOC(=O)[C@H](Cc1ccc(O)cc1)/N=C1/[C@H]2CCC[C@]1(O)[C@@](C)([N+](=O)[O-])C2 , please.
// result > 100 µM (inactive)
